Origin of values: patent US7465744B2

A short record of pKi observed with human dopamine D3 receptors (Homo sapiens) follows.
Scale for pKi: -log10 of concentration given in mol/L; no unit attached.

Ask: Query for human dopamine D3 receptors (Homo sapiens): what pKi does the record show for Cn1c(SCCCN2CCc3ccc(C(=O)c4ccccc4)cc3C2)nnc1-c1ccsc1 ?
Result: 7.65

Ask: Provide the documented pKi with human dopamine D3 receptors (Homo sapiens) as the system for CC(=O)c1ccc2c(c1)CN(CCCSc1nnc(-c3cccn3C)n1C)CC2
Result: 8.35

Ask: For the record Cn1c(SCCCN2CCc3ccc(C(=O)c4ccccc4)cc3C2)nnc1-c1ccco1 , what value of pKi is listed for human dopamine D3 receptors (Homo sapiens)?
Result: 7.71

###

protocol: Investigation of the cerebral availability and the oral bioavailability
Format: in vivo, male Wistar rats
setupConditions: male, Wistar, rat, brain/plasma, oral, 10 mg/kg of body weight; read-out: AUCbrain/AUCplasma
Experimental: The test substances were administered to male Wistar rats in parallel experiments in each case intravenously (tail vein, 2 mg/kg of body weight) and orally (gavage, 10 mg/kg of body weight). […] The concentration of the test compound in the blood plasma and in the brain tissue (plasma and brain) was determined in a conventional way by coupled liquid chromatography/mass spectroscopy or by HPLC. […]
Kp listing for selected molecules.
Reply with just the number.

| molecule | attributeMeasured | readoutNumber |
| --- | --- | --- |
| CCC(=O)c1ccc2c(c1)CN(CCCSc1nnc(-c3cccn3C)n1C)CC2 [Ia′-15] | Kp | 0.3 |

Ask: For Cn1cccc1-c1nnc(SCCCN2CCc3ccc(C(=O)c4ccccc4)cc3C2)n1C [Ia′-12] , what is its reported Kp?
Result: 0.2

###

testSystem: human dopamine D2 (L) receptors (long isoform) (Homo sapiens, UniProt P14416)
Construct: expressed in transfected cells
Sequence (P14416 whole entry, canonical isoform): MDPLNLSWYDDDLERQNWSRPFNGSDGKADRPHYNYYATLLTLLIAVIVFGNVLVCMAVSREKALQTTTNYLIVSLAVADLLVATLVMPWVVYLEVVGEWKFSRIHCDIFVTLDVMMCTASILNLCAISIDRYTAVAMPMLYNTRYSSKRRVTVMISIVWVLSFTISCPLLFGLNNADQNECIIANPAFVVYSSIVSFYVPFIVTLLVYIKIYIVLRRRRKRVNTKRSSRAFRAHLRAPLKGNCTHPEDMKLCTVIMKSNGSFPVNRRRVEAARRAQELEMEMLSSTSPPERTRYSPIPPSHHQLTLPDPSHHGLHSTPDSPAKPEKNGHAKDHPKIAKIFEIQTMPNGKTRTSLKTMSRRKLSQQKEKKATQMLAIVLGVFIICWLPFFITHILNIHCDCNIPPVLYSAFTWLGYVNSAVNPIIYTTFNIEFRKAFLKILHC
protocol: Receptor binding study, dopamine D2(L) receptor ([125I]-iodospiperone displacement)
setupConditions: selectivity ratio D2(L) versus D3 binding
A collection of compounds and their measured Ki (D2)/Ki (D3)
# answer = number (no unit)

| smilesNotation | readoutNumber |
| --- | --- |
| Cn1c(SCCCN2CCc3ccc(C(=O)c4cccc(F)c4)cc3C2)nnc1-c1ccccc1 | 56 |

Ask: Short answer please: Ki (D2)/Ki (D3), human dopamine D2 (L) receptors (long isoform) (Homo sapiens, UniProt P14416), entry CC(=O)c1ccc2c(c1)CN(CCCSc1nnc(-c3cccnc3)n1C)CC2
Result: 37

Ask: Recorded Ki (D2)/Ki (D3) for CCC(=O)c1ccc2c(c1)CN(CCCSc1nnc(-c3cccn3C)n1C)CC2 with human dopamine D2 (L) receptors (long isoform) (Homo sapiens, UniProt P14416), please?
Result: 103

Ask: Reported Ki (D2)/Ki (D3) for human dopamine D2 (L) receptors (long isoform) (Homo sapiens, UniProt P14416), given Cn1cccc1-c1nnc(SCCCN2CCc3ccc(C(=O)c4ccccc4)cc3C2)n1C ?
Result: 90

###

testSystem: human dopamine D3 receptors (Homo sapiens, UniProt P35462)
Sequence (P35462 whole entry): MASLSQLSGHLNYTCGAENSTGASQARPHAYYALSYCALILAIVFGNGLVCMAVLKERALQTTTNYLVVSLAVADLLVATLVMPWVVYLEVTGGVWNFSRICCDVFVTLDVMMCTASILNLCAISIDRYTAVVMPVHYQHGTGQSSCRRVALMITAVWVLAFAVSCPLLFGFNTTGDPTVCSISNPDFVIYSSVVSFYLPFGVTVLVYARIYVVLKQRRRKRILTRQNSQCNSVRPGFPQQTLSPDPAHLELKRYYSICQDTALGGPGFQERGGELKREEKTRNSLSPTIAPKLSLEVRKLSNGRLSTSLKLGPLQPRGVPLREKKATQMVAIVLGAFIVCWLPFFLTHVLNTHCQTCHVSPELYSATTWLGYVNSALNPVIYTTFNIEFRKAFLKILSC
attributeMeasured: pKi
In textbook form, pKi equals minus log to base ten of the concentration in mol/L.

| compound | pKi |
| --- | --- |
| CCC(=O)c1ccc2c(c1)CN(CCCSc1nnc(-c3ccccc3)n1C)CC2 | 8.36 |
| CCC(=O)c1ccc2c(c1)CN(CCCSc1nnc(-c3ccc[nH]3)n1C)C2.Cl [Ib′-65, hydrochloride] | 7.40 |
| CCC(=O)c1ccc2c(c1)CN(CCCSc1nnc(-c3ccccc3)n1C)C2.Cl [Ib′-25, hydrochloride] | 7.67 |

Turning to the following compound.
Ask: GET /values?readout=pKi&system=human dopamine D3 receptors (Homo sapiens, UniProt P35462)&item= Cn1cccc1-c1nnc(SCCCN2CCc3ccc(C(=O)c4cccc(F)c4)cc3C2)n1C
Result: 7.52
